Target: human PAH with the R408W mutation (A375 R408W cells) (Homo sapiens, UniProt P00439, R408W)
Construct: expressed in transfected cells
Sequence (P00439 whole entry R408W): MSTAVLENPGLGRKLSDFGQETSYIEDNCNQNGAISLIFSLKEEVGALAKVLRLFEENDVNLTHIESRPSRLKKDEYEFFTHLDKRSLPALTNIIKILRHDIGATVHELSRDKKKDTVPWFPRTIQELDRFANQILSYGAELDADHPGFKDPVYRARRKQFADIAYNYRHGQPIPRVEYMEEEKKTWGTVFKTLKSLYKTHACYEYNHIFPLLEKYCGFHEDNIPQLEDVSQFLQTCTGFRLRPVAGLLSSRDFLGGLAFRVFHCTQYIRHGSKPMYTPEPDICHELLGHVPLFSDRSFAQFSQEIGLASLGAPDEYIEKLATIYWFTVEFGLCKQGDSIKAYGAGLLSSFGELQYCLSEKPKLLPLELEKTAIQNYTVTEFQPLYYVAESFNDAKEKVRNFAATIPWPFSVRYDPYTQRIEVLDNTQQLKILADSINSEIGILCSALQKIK
Experiment: Cell Based Phenylalanine Flux Assay
Details: A375 R408W cells; 24 hrs with compound, then 20 μM sepiapterin and 800 μM 13C9,15N-Phenylalanine for 4 hours; 13C-Tyrosine by LC-MS; average where tested multiple times
reported-property: AC50

The examples below pair each entry with its known result.
> print(dat)
                                   compound  reported.result
1  CC(C)(C#N)c1nc(C(F)F)c(C(=O)N2CCc3[nH]cnc3[C@H]2c2nc3cc(F)ccc3o2)o1         ≤ 500 nM
2  O=C(c1nnc(-c2ccccn2)o1)N1CCc2[nH]cnc2[C@@H]1c1nc2ccc(F)c(F)c2o1  1000 to 5000 nM
3  O=C(c1nnc(-c2ccn(C(F)F)n2)o1)N1CCc2[nH]cnc2[C@@H]1c1nc2cc(F)ccc2o1  1000 to 5000 nM
4  Cc1ccc2nc([C@H]3c4nc[nH]c4CCN3C(=O)c3ocnc3C(F)F)oc2c1   500 to 1000 nM
5  O=C(c1cnco1)N1Cc2[nH]cnc2[C@H]1c1nc2ccccc2o1 (single isomer, unassigned)        ≥ 5000 nM

// query Return reported AC50; argument: O=C(c1ccnn1C(F)(F)F)N1CCc2[nH]cnc2[C@H]1c1nc2cc(F)ccc2o1
// result 500 to 1000 nM

// query Entry Cc1ccc2oc([C@@H]3c4nc[nH]c4CCN3C(=O)c3nnc(-c4cnn(C(F)F)c4)o3)nc2c1 has what AC50?
// result ≤ 500 nM

The reported measurements were obtained from patent US20250171437A1.
